Assay: chemical genetic growth profiling, strain panel (AID 1159580);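 note: tested at 20 µM; growth read once vehicle control cultures reached saturation at 30 °C; 1 = growth at the plate median or of vehicle wells; lower values mean less growth of the strain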
Details: S. cerevisiae deletion strains, growth OD, locus YEL061C, strain CIN8
Hit rate of the full screen: of about 5,500 compounds, about 2,000 (36%) were called active. Roughly 18% stayed inconclusive and do not appear here. Cut-off read from the data, not from the text of the source: active = normalized growth mostly below about 0.91 (no sharp cut-off); inconclusive = no clear call, values can overlap the other calls; inactive = mostly above about 0.92. This is one part of the list.
Reply using exactly one outcome from active, inactive

compound	assignedLabel
Nc1c2ccccc2nc2ccccc12	active

Prompt: What did the test return for Cc1cccc(NC(=S)NC2CC3C=CC2C3)c1 (stereo unspecified) ?
Response: active

Prompt: What did the test return for O=[N+]([O-])c1ccccc1SCc1n[nH]c(=S)n1-c1cccc(C(F)(F)F)c1 ?
Response: inactive

----------
Test: chemical genetic growth profiling, strain panel (AID 1159580)
Details: S. cerevisiae deletion strains, growth OD, locus YLR262C, strain YPT6 (second series), hits give low values
In all, about 5,500 compounds went through this assay and about 2,000 (36%) were called active. Inconclusive results (about 18%) are left out. The list shows a part of the results.
readoutName: normalized growth
Note: the reply should be a number with no unit written.

These recorded examples may help you get a feel for the data.
compound	normalized growth
CCOc1ccc2nc3cc(N)ccc3c(N)c2c1	0.891
C#C[C@]1(O)CCC2C3CCC4=CC(=O)CC[C@@H]4C3CC[C@@]21C (stereo partly specified)	0.916
Nc1c2ccccc2nc2ccccc12 (tested in a mixture with another compound)	0.573
Nc1c2c(nc3ccccc13)CCCC2O (stereo unspecified)	1.01
Nc1c2c(nc3ccccc13)CCCC2	1.01

Next:
Prompt: Quick check: normalized growth of C#C[C@]1(O)CCC2C3CCC4=C(CCC(=O)C4)C3CC[C@@]21C (stereo partly specified) ?
Response: 0.825

----------
Experiment: chemical genetic growth profiling, strain panel (AID 1159580)
Settings: S. cerevisiae deletion strains, growth OD, locus YGR135W, strain pre9, hits give low values
Hit rate of the full screen: of about 5,500 compounds, about 2,000 (36%) were called active. Another 18% or so got no clear call; they are omitted. Some of the results follow.
Label fulfilled when normalized growth < 1; otherwise not fulfilled.

Consider the worked cases shown below.
molecule	assignedLabel
C=C/C(C)=C\CC1C(C)(O)CCC2C(C)(C)CCCC21C (stereo not given)	fulfilled
CC1(C)CC[C@@]2(C(=O)O)C(C1)C1=CCC3[C@@]4(C)CC[C@H](O)C(C)(C)C4CC[C@@]3(C)[C@]1(C)C[C@@H]2O (stereo not given in full)	not fulfilled
CC(=O)OC1CC(OC(C)=O)C2(C)C(CC(OC(C)=O)C3(C)C4=CC(=O)OC(=O)C4(C)CCC32)C1(C)C (stereo not given)	not fulfilled

Prompt: In the record for O=c1[nH]cc(F)c(=O)[nH]1 , is normalized growth less than 1?
Response: fulfilled

Prompt: In the record for CC(=O)O[C@H]1CC[C@@]2(C)C(CC[C@]3(C)C2CC=C2C4CC(C)(C)CC[C@]4(C)CC[C@]23C)C1(C)C (stereo not given in full) , is normalized growth less than 1?
Response: not fulfilled

Prompt: In the record for C[C@@H]1CC[C@H]2[C@@H](C)C(=O)O[C@@H]3O[C@@]4(C)CC[C@@H]1[C@]32OO4 , is normalized growth less than 1?
Response: fulfilled

Prompt: In the record for C[C@@H]1OC(O[C@H]2C(O[C@H]3CC[C@@]4(C)C(CC[C@]5(C)C4CC=C4C6CC(C)(C)CC[C@]6(C(=O)O)CC[C@]45C)[C@]3(C)CO)OC[C@H](O)[C@@H]2O)[C@H](O)[C@H](O)[C@H]1O (stereo not given in full) , is normalized growth less than 1?
Response: fulfilled

Prompt: In the record for CC(=O)O[C@@H]1CC[C@@]2(C)C(CC[C@]3(C)C2CC=C2C4CC(C)(C)CC[C@]4(C(=O)O)CC[C@]23C)C1(C)C (stereo not given in full) , is normalized growth less than 1?
Response: fulfilled

----------
Test: chemical genetic growth profiling, strain panel (AID 1159580)
Settings: S. cerevisiae deletion strains, growth OD, locus YDR318W, strain mcm21
About 2,000 (36%) of roughly 5,500 compounds were called active. Not shown: some 18% with an inconclusive outcome. Rule as the data show it: active = normalized growth mostly below about 0.91 (no sharp cut-off); inconclusive = no clear call, values can overlap the other calls; inactive = mostly above about 0.92. The list shows a part of the results.
Reply using exactly one outcome from active, inactive

Consider the worked cases shown below.
compound	assignedLabel
CNC(=O)O/N=C\C(C)(C)SC	inactive
CC(C)(Oc1ccc(CCNC(=O)c2ccc(Cl)cc2)cc1)C(=O)O	inactive
C[C@@H]1CC[C@H]2[C@@H](C)C(=O)O[C@@H]3O[C@@]4(C)CC[C@@H]1[C@]32OO4	active
OC(CCN1CCCCC1)(c1ccccc1)C1CCCCC1 (stereo unspecified)	inactive
C[C@@H]1CC[C@H]2[C@@H](C)C(O)O[C@@H]3O[C@@]4(C)CC[C@@H]1[C@]32OO4 (stereo partly specified)	active

Prompt: What did the test return for Cc1ccc(S(=O)(=O)NC(=O)NN2CC3CCCC3C2)cc1 (stereo unspecified) ?
Response: inactive

Prompt: What did the test return for NNC(=O)c1ccncc1 ?
Response: inactive

Prompt: What did the test return for CC1C(=O)OC2C1CCC1(C)C=CC(=O)C3(C)OC213 (stereo unspecified) ?
Response: inactive

Prompt: What did the test return for OC(CCN1CCCC1)(c1ccccc1)C1CCCCC1 (stereo unspecified) ?
Response: inactive

Prompt: What did the test return for CC1=CCC2C3(C)C1=CC(=O)OC3CC1C(C)(C)CC(O)C(O)C12C (stereo unspecified) ?
Response: inactive

Prompt: What did the test return for Nc1c2ccccc2nc2ccccc12 (tested in a mixture with another compound) ?
Response: active

----------
Assay: chemical genetic growth profiling, strain panel (AID 1159580);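 note: tested at 20 µM; growth read once vehicle control cultures reached saturation at 30 °C; 1 = growth at the plate median or of vehicle wells; lower values mean less growth of the strain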
Details: S. cerevisiae deletion strains, growth OD, locus YML016C, strain PPZ1, hits give low values
About 2,000 (36%) of roughly 5,500 compounds were called active. About 18% were inconclusive and are not listed. This is one part of the list.
Quick reference: normalized growth of the listed items.
Note: the reply should be a number with no unit written.

These recorded examples may help you get a feel for the data.
molecule	normalized growth
C#C[C@]1(O)CCC2C3CCC4=CC(=O)CC[C@@H]4C3CC[C@@]21C (stereo partly drawn)	0.991
CC1(C)CC[C@]2(C)CC[C@]3(C)C(=CCC4[C@@]5(C)CC[C@H](O)C(C)(C)C5CC[C@]43C)C2C1 (stereo partly drawn)	1.01
NCCC(=O)N[C@@H](Cc1cnc[nH]1)C(=O)O	0.992

Next:
Prompt: Quick check: normalized growth of C[C@]12CCC(=O)C=C1CCC1C2[C@@H](O)C[C@@]2(C)C1CC[C@]2(O)C(=O)CO (stereo partly drawn) ?
Response: 1.02

----------
Assay: chemical genetic growth profiling, strain panel (AID 1159580);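 note: tested at 20 µM; growth read once vehicle control cultures reached saturation at 30 °C; 1 = growth at the plate median or of vehicle wells; lower values mean less growth of the strain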
Conditions: S. cerevisiae deletion strains, growth OD, locus YNL071W, strain lat1
Hit rate of the full screen: of about 5,500 compounds, about 2,000 (36%) were called active. Inconclusive results (about 18%) are left out. Rule as the data show it: active = normalized growth mostly below about 0.91 (no sharp cut-off); inconclusive = no clear call, values can overlap the other calls; inactive = mostly above about 0.92. The list shows a part of the results.
Reply using exactly one outcome from yes for active, no for inactive

Consider the worked cases shown below.
compound	assignedLabel
C#C[C@]1(OC(C)=O)CCC2C3CCC4=C/C(=N\O)CCC4C3CC[C@@]21CC (some centres undefined)	yes
C#C[C@]1(O)CCC2C3CCC4=C(CCC(=O)C4)C3CC[C@@]21C (some centres undefined)	no
CC(=O)O[C@@H]1CC[C@@]2(C)C(CC[C@]3(C)C2CC=C2C4CC(C)(C)CC[C@]4(C(=O)O)CC[C@]23C)C1(C)C (some centres undefined)	no

Prompt: What did the test return for COc1cc(C(=O)O[C@H]2CC[C@@]3(C)[C@@H]4CC[C@H]5[C@]6(O)C[C@H](O)[C@@]7(O)[C@@H](CN8C[C@@H](C)CC[C@H]8[C@@]7(C)O)[C@]6(O)C[C@@]53O[C@]24O)cc(OC)c1OC ?
Response: no

Prompt: What did the test return for COC(=O)C[C@H]1C(C)(C)C(=O)[C@@H]2CC3C4=CC(=O)O[C@@H](c5ccoc5)[C@]4(C)CCC3[C@@]1(C)C2=O (some centres undefined) ?
Response: no

Prompt: What did the test return for CC(CC(=O)C(O)C(C)(C)O)C1C(=O)CC2(C)C3=CCC4C(C)(C)C(OC5OCC(O)C(O)C5O)CCC45CC35C(O)CC12C (centres undefined) ?
Response: no

----------
Quick reference: normalized growth of the listed items.
Experiment: chemical genetic growth profiling, strain panel (AID 1159580);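 note: tested at 20 µM; growth read once vehicle control cultures reached saturation at 30 °C; 1 = growth at the plate median or of vehicle wells; lower values mean less growth of the strain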
Conditions: S. cerevisiae deletion strains, growth OD, locus YEL061C, strain CIN8, hits give low values
About 2,000 (36%) of roughly 5,500 compounds were called active. Not shown: some 18% with an inconclusive outcome. Some of the results follow.
Note: the reply should be a number with no unit written.

molecule	readoutName	numericReadout
CC(C)=CCCC1(C)C=Cc2c(O)c3c(c(CC=C(C)C)c2O1)OC12C(=CC4CC1C(C)(C)OC2(C/C=C(/C)C(=O)O)C4=O)C3=O (stereo not given)	normalized growth	0.881
CC1(C)CC[C@@]2(C(=O)O)C(C1)C1=CCC3[C@@]4(C)CC[C@H](O)C(C)(C)C4CC[C@@]3(C)[C@]1(C)C[C@@H]2O (stereo not given in full)	normalized growth	1.02
C/C=C(/C)C(=O)O[C@@H]1[C@H](OC(C)=O)[C@@]2(CO)C(CC1(C)C)C1=CCC3[C@@]4(C)CC[C@H](O[C@@H]5O[C@H](C(=O)O)[C@@H](O[C@@H]6O[C@H](CO)[C@@H](O)[C@H](O)[C@H]6O)[C@H](O)[C@H]5O[C@@H]5O[C@H](CO)[C@@H](O)[C@H](O)[C@H]5O)[C@](C)(CO)C4CC[C@@]3(C)[C@]1(C)C[C@H]2O (stereo not given in full)	normalized growth	1.01
C[C@H]1[C@H](C)CC[C@]2(CO)CC[C@]3(C)C(=CCC4[C@@]5(C)CC[C@H](O)C(C)(C)C5CC[C@]43C)[C@H]12 (stereo not given in full)	normalized growth	1.01

Prompt: Quick check: normalized growth of C[C@@H]1CC[C@]2(C(=O)O)CC[C@]3(C)C(=CCC4[C@@]5(C)CC[C@H](O)C(C)(C)C5CC[C@]43C)C2[C@H]1C (stereo not given in full) ?
Response: 1.02
